system: Caspase 3; test: Caspase 3 detection assay in SJSA1 cells; type: cell-based; settings: 3 μM, SJSA1, 48 h, Caspase 3 activation over DMSO-treated cells
Bridge positions count the residues as written; N and C are the ends. Square brackets hold non-standard residues; d marks the D form. Peptide text beside a SMILES is read from it. R8 = C=CCCCCCC[C@@](C)(N)C(=O)O; S5 = C=CCCC[C@](C)(N)C(=O)O
readout-name: caspase 3 μM
Answer with the value's number alone.

# compound, caspase 3 μM
rows = [
    ("CC[C@H](C)[C@H](NC(C)=O)C(=O)N[C@H](C(=O)N[C@@H](Cc1ccccc1)C(=O)N[C@]1(C)CCCCCCC=CCCC[C@@](C)(C(=O)N[C@@H](C)C(=O)N[C@@H](C)C(=O)N[C@H](C(=O)N[C@H](C)C(N)=O)[C@@H](C)CC)NC(=O)[C@H](CC(C)C)NC(=O)[C@H](CCC(N)=O)NC(=O)[C@H](C(C)C)NC(=O)[C@H](Cc2c[nH]c3ccccc23)NC(=O)[C@H](Cc2ccc(O)cc2)NC(=O)[C@H](Cc2ccccc2)NC1=O)[C@@H](C)O [compound 177] (Ac-ITF[R8]FYWVQL[S5]AAI[dA]-NH2; staple 4-11)", 1),
]

Now for the compound whose caspase 3 μM we want.
Form field caspase 3 μM, entry CC(=O)N[C@@H](CC(C)C)C(=O)N[C@H](C(=O)N[C@@H](Cc1ccccc1)C(=O)N[C@]1(C)CCCCCCC=CCCC[C@@](C)(C(=O)N[C@@H](CO)C(=O)N[C@@H](C)C(=O)N[C@@H](CC(C)C)C(N)=O)NC(=O)[C@H](CC(C)C)NC(=O)[C@H](CCC(N)=O)NC(=O)[C@H](C)NC(=O)[C@H](Cc2c[nH]c3ccccc23)NC(=O)[C@H](Cc2ccc(O)cc2)NC(=O)[C@H](C)NC1=O)[C@@H](C)O [compound 4] (Ac-LTF[R8]AYWAQL[S5]SAL-NH2; staple 4-11) : 9

###

system: SJSA-1 cells; assay: Cell lysis by peptidomimetic macrocycles (LDH release); assay type: cell-based; settings: 25 μM, SJSA-1, 1 h
Bridge positions count the residues as written; N and C are the ends. Square brackets hold non-standard residues; d marks the D form. Peptide text beside a SMILES is read from it. R8 = C=CCCCCCC[C@@](C)(N)C(=O)O; S5 = C=CCCC[C@](C)(N)C(=O)O; Ac3c = NC1(C(=O)O)CC1
readout-name: 25 μM % Lysed cells (1 h LDH) (%)
Numbers only here, please. The scale is %.

Answered cases to consult:
# molecule, unit-string, 25 μM % Lysed cells (1 h LDH)
records = [
    ("CC[C@H](C)[C@H](NC(C)=O)C(=O)N[C@H](C(=O)N[C@@H](Cc1ccccc1)C(=O)N[C@]1(C)CCCCCCC=CCCC[C@@](C)(C(=O)N[C@@H](C)C(=O)N[C@@H](C)C(=O)N[C@H](C(=O)N[C@H](C)C(N)=O)[C@@H](C)CC)NC(=O)[C@H](CC(C)C)NC(=O)[C@H](CCC(N)=O)NC(=O)[C@H](C(C)C)NC(=O)[C@H](Cc2c[nH]c3ccccc23)NC(=O)[C@H](Cc2ccc(O)cc2)NC(=O)[C@H](Cc2ccccc2)NC1=O)[C@@H](C)O [compound 177] (Ac-ITF[R8]FYWVQL[S5]AAI[dA]-NH2; staple 4-11)", "%", 0),
    ("CC[C@H](C)[C@H](NC(=O)[C@H](C)NC(=O)[C@H](C)NC(=O)[C@]1(C)CCCC=CCCCCCC[C@@](C)(NC(=O)[C@H](Cc2ccccc2)NC(=O)[C@@H](NC(=O)[C@H](CC(C)C)NC(C)=O)[C@@H](C)O)C(=O)N[C@@H](C)C(=O)N[C@@H](Cc2ccc(C(=O)O)cc2)C(=O)N[C@@H](Cc2c[nH]c3ccccc23)C(=O)N[C@@H](C)C(=O)N[C@@H](CCC(N)=O)C(=O)N[C@@H](CC(C)C)C(=O)N1)C(=O)N[C@H](C)C(N)=O (single isomer, unassigned) [compound 182]", "%", 3),
    ("CC(=O)N[C@@H](Cc1ccccc1)C(=O)N[C@]1(C)CCCCCCC=CCCC[C@@](C)(C(=O)N[C@@H](C)C(=O)N[C@@H](C)C(=O)N[C@@H](Cc2ccccc2)C(N)=O)NC(=O)[C@H](CC(C)C)NC(=O)C2(CC2)NC(=O)[C@H](CCC(=O)O)NC(=O)[C@H](Cc2c[nH]c3ccccc23)NC(=O)[C@H](Cc2ccc(O)cc2)NC(=O)[C@H](C)NC1=O [compound 18] (Ac-F[R8]AYWE[Ac3c]L[S5]AAF-NH2; staple 2-9)", "%", 2),
    ("CC(=O)N[C@@H](CC(C)C)C(=O)N[C@H](C(=O)N[C@@H](Cc1ccccc1)C(=O)N[C@]1(C)CCCCCCC=CCCC[C@@](C)(C(=O)N[C@@H](CO)C(=O)N[C@@H](C)C(=O)N[C@@H](C)C(N)=O)NC(=O)[C@H](CC(C)C)NC(=O)[C@H](CCC(N)=O)NC(=O)[C@H](C)NC(=O)[C@H](Cc2c[nH]c3ccccc23)NC(=O)[C@H](Cc2ccc(O)cc2)NC(=O)[C@H](C)NC1=O)[C@@H](C)O [compound 11] (Ac-LTF[R8]AYWAQL[S5]SAA-NH2; staple 4-11)", "%", 2),
]

Now for the molecule whose 25 μM % Lysed cells (1 h LDH) we want.
Form field 25 μM % Lysed cells (1 h LDH), entry CC(=O)N[C@@H](CC(C)C)C(=O)N[C@H](C(=O)N[C@@H](Cc1ccccc1)C(=O)N[C@]1(C)CCCCCCC=CCCC[C@@](C)(C(=O)N[C@@H](CO)C(=O)N[C@@H](C)C(=O)N[C@@H](CC(C)C)C(N)=O)NC(=O)[C@H](CC(C)C)NC(=O)[C@H](CCC(N)=O)NC(=O)[C@H](C)NC(=O)[C@H](Cc2c[nH]c3ccccc23)NC(=O)[C@H](Cc2ccc(O)cc2)NC(=O)[C@H](C)NC1=O)[C@@H](C)O [compound 4] (Ac-LTF[R8]AYWAQL[S5]SAL-NH2; staple 4-11) : 1

###

system: SJSA-1 cells; assay: Cell lysis by peptidomimetic macrocycles (LDH release); assay type: cell-based; settings: 25 μM, SJSA-1, 1 h
readout-name: 25 μM % Lysed cells (1 h LDH)
The reply should read as a number followed by its unit.

GET /values?item= CC(=O)N[C@@H](CC(C)C)C(=O)N[C@H](C(=O)N[C@@H](Cc1ccccc1)C(=O)N[C@]1(C)CCCCCCC=CCCC[C@@](C)(C(=O)N[C@@H](C)C(=O)N[C@@H](C)C(=O)N[C@@H](C)C(=O)N[C@H](C)C(N)=O)NC(=O)[C@H](CC(C)C)NC(=O)[C@H](CCC(N)=O)NC(=O)[C@H](C)NC(=O)[C@H](Cc2c[nH]c3ccccc23)NC(=O)[C@H](Cc2ccc(O)cc2)NC(=O)[C@H](C)NC1=O)[C@@H](C)O (single isomer, unassigned) &system= SJSA-1 cells returns 25 μM % Lysed cells (1 h LDH): 0%

###

Test system: SJSA-1 cells
Assay: Cell lysis by peptidomimetic macrocycles (LDH release)
Assay type: cell-based
Conditions: 25 μM, SJSA-1, 1 h
Experimental: SJSA-1 cells were plated out one day in advance in clear flat-bottom plates (Costar, catalog number 353072) at 7500 cells/well with 100 ul/well of growth media, leaving row H columns 10-12 empty for media alone. On the day of the assay, media was exchanged with RPMI 1% FBS media, 90 uL of media per well. […] Cell plates were incubated for 1 hour at 37° C. […] LDH release is measured using the LDH cytotoxicity assay kit from Caymen, catalog #1000882.
Bridge positions count the residues as written; N and C are the ends. Square brackets hold non-standard residues; d marks the D form. Peptide text beside a SMILES is read from it. R8 = C=CCCCCCC[C@@](C)(N)C(=O)O; S5 = C=CCCC[C@](C)(N)C(=O)O
readout-name: 25 μM % Lysed cells (1 h LDH) (%)
Numbers only here, please. The scale is %.

# compound, 25 μM % Lysed cells (1 h LDH), %
rows = [
    ("CC(=O)N[C@@H](CC(C)C)C(=O)N[C@H](C(=O)N[C@@H](Cc1ccccc1)C(=O)N[C@]1(C)CCCCCCC=CCCC[C@@](C)(C(=O)N[C@@H](C)C(=O)N[C@H](C(=O)NCC(N)=O)C(C)C)NC(=O)[C@H](CC(C)C)NC(=O)[C@H](CCC(N)=O)NC(=O)[C@H](C)NC(=O)[C@H](Cc2c[nH]c3ccccc23)NC(=O)[C@H](Cc2ccc(O)cc2)NC(=O)[C@H](C)NC1=O)[C@@H](C)O (single isomer, unassigned)", 0),
]

Now for the compound whose 25 μM % Lysed cells (1 h LDH) we want.
Form field 25 μM % Lysed cells (1 h LDH), entry CC(=O)N[C@@H](CC(C)C)C(=O)N[C@H](C(=O)N[C@@H](Cc1ccccc1)C(=O)N[C@]1(C)CCCCCCC=CCCC[C@@](C)(C(=O)N[C@@H](CO)C(=O)N[C@H](C(=O)N[C@@H](CO)C(N)=O)C(C)C)NC(=O)[C@H](CC(C)C)NC(=O)[C@H](CCC(N)=O)NC(=O)[C@H](C)NC(=O)[C@H](Cc2c[nH]c3ccccc23)NC(=O)[C@H](Cc2ccc(O)cc2)NC(=O)[C@H](C)NC1=O)[C@@H](C)O [compound 121] (Ac-LTF[R8]AYWAQL[S5]SVS-NH2; staple 4-11) : 1
